assay: Confirmatory qHTS for Inhibitors of ATXN expression; details: ATXN2-luciferase reporter cells, luminescence, 24 h; series mostly up to 11.5 µM; further: nearly all actives have a fitted effect of over 65% in size
About 940 (45%) of roughly 2,100 compounds were called active. About 48% were inconclusive and are not listed. The call rests on the fitted dose curve; in most records, active means well fitted inhibition curve with a large enough effect; inconclusive means small, poorly fitted or top-dose-only effect; inactive means no such curve, though single readings can be large or run the other way. The set was probably picked from earlier hits. The list shows a part of the results.
Respond only with the outcome that fits, drawn from 1.0 = active, 0.0 = inactive

[[record]]
compound = "Oc1c(CN2CCCCC2)ccc2cccnc12"
label_class = 1.0

[[record]]
compound = "O=c1cc(N2CCN(c3cccc(Cl)c3)CC2)[nH]c(=O)n1C1CCCCC1"
label_class = 1.0

[[record]]
compound = "CCC(=O)NC(=S)NNC(=O)c1ccc(OC)cc1"
label_class = 1.0

[[record]]
compound = "CN(C)CCNc1ncnc2c1sc1nc(N3CCOCC3)c3c(c12)CC(C)(C)SC3"
label_class = 1.0

[[record]]
compound = "NS(=O)(=O)c1ccc(CCNC(=O)COC(=O)/C=C/c2cc(Br)ccc2F)cc1"
label_class = 0.0


What did the test return for "Nc1c2ccccc2nc2ccccc12" ?
1.0

I'd appreciate the recorded outcome for CCC(=O)NC(c1cc(Cl)c2cccnc2c1O)C(C)C (stereo not drawn) from this test.
1.0

Which outcome did this test record for the compound "Cc1cc(N2CCN(C)CC2)ccc1NC(=O)c1ccc(-c2ccc(Cl)cc2)o1" ?
1.0

Just curious, what result did "O=C(CNC(=O)c1ccccc1Br)N/N=C/c1ccccc1O" get here?
1.0

Could you kindly confirm the outcome this assay logged for CC(=O)NC(C)c1cc(Cl)c2cccnc2c1O (stereo not drawn) ?
1.0

Query: recorded result category for CCc1ccc(-c2csc(NC(=O)C3CC(=O)N(c4ccc5c(c4)OCCO5)C3)n2)cc1 (stereo not drawn) in this test
1.0

Can you look up the reported call for "Cc1cc(C(=O)N/N=C/c2ccc([N+](=O)[O-])s2)n[nH]1" for me?
1.0

Which outcome did this test record for the compound "COc1ccc(C(=O)NNC(=S)NC(=O)c2ccccc2)cc1" ?
1.0

* * *

assay: Confirmatory qHTS for Inhibitors of ATXN expression; conditions: ATXN2-luciferase reporter cells, luminescence, 24 h; series mostly up to 11.5 µM; further: nearly all actives have a fitted effect of over 65% in size
Out of some 2,100 compounds screened, about 940 (45%) were called active. Inconclusive results (about 48%) are left out. Calls follow the shape of the dose curve; as a rule, active = well fitted inhibition curve with a large enough effect; inconclusive = small, poorly fitted or top-dose-only effect; inactive = no such curve, though single readings can be large or run the other way. The set was probably picked from earlier hits. This is one part of the list.
Log the outcome using a class from active, inactive

Study these solved cases before continuing.
[[record]]
molecule = "CCN1CCN(C(=S)c2ccc(-c3ccccc3)cc2)CC1"
label_class = "active"

[[record]]
molecule = "CN1CCN(C(c2ccc(C(F)(F)F)cc2)c2ccc3cccnc3c2O)CC1 (configuration not stated)"
label_class = "active"

[[record]]
molecule = "O=[N+]([O-])c1cc(O)c2ncccc2c1"
label_class = "active"

[[record]]
molecule = "CN1CCN(c2cc(-c3cc(O)c4ncccc4c3)ccn2)CC1"
label_class = "active"

[[record]]
molecule = "O=C(Nc1ccc(Cl)cc1)Nc1ccc(N2CCCC2)c(S(=O)(=O)Nc2ccccc2Cl)c1"
label_class = "active"

[[record]]
molecule = "Cc1cc(OCc2nc(N)nc(N)c2-c2ccc(Cl)c(Cl)c2)ccc1[N+](=O)[O-]"
label_class = "active"


Please state the recorded outcome for this molecule: Cn1nccc1C(=O)N1CCCC(C(=O)c2cccc3ccccc23)C1 (configuration not stated)
inactive

What outcome does the record of this test show for "CCNc1ccc(Br)cc(C(=O)/C=C/c2ccccc2Cl)c1=O" ?
inactive

What did this assay record as the result for "COc1cc(-c2cnc3c(NC=O)cc(-c4cccc(C(F)(F)F)c4)cn23)cc(OC)c1OC" ?
active

* * *

assay: Confirmatory qHTS for Inhibitors of ATXN expression; conditions: ATXN2-luciferase reporter cells, luminescence, 24 h; series mostly up to 11.5 µM; further: nearly all actives have a fitted effect of over 65% in size
Screen size: about 2,100 compounds; about 940 (45%) were called active. About 48% were inconclusive and are not listed. Calls follow the shape of the dose curve; as a rule, active = well fitted inhibition curve with a large enough effect; inconclusive = small, poorly fitted or top-dose-only effect; inactive = no such curve, though single readings can be large or run the other way. The set was probably picked from earlier hits. Some of the results follow.
Tick one outcome: T for active, F for inactive

Worked examples follow.
[[record]]
compound = "CCCCC1C(=O)CC[C@H]2[C@@H]1CC(=O)[C@@H]2C/C=C\\CCCC(=O)O (stereo partly specified)"
label_class = "F"

[[record]]
compound = "COc1cc(NC(=O)N2CCc3nc(Nc4cc(Cl)cc(Cl)c4)ncc3C2)cc(OC)c1OC"
label_class = "T"

[[record]]
compound = "CC(=O)N/N=C/c1cc(C(C)(C)C)cc(/C=N/NC(C)=O)c1O"
label_class = "T"

[[record]]
compound = "Cc1ccc2nc(NC(=O)CSCC(=O)OCC(=O)c3ccc(Br)cc3)sc2c1"
label_class = "T"

[[record]]
compound = "CCOC(=O)c1c(C)oc2c(F)c(F)c(F)c(F)c2c1=O"
label_class = "T"


State the result this test recorded for "CC(C)(CC(=O)N1CCN(c2ccc(Cl)cc2)CC1)CC1=NS(=O)(=O)c2ccccc2N1" .
T

* * *

Quick list: Potency per entry.
assay: Confirmatory qHTS for Inhibitors of ATXN expression; settings: ATXN2-luciferase reporter cells, luminescence, 24 h; series mostly up to 11.5 µM; further: nearly all actives have a fitted effect of over 65% in size; further: potency means the concentration at half of the fitted maximal effect
Among all 2,100 compounds or so, about 940 (45%) were called active. Inconclusive results (about 48%) are left out. So high a share suggests a set chosen from earlier hits. The list shows a part of the results.

[[record]]
compound = "OC(c1ccccc1)(c1nc(/C=C/c2ccc(C(F)(F)F)cc2)cs1)C(F)(F)F (stereo unspecified)"
experimental_value = "35.5 µM (active)"

[[record]]
compound = "Nc1ncn([C@@H]2O[C@H](CO)[C@@H](O)[C@H]2O)c(=O)n1"
experimental_value = "3.98 µM (active)"

[[record]]
compound = "Nc1ccn([C@@H]2O[C@H](CO)[C@@H](O)C2O)c(=O)n1 (stereo partly specified)"
experimental_value = "3.55 µM (active)"

[[record]]
compound = "COc1ccc2nc(C)cc(NCc3cccc(C(F)(F)F)c3)c2c1"
experimental_value = "14.1 µM (active)"

[[record]]
compound = "CCCCC(=O)NC(c1ccc(Cl)cc1Cl)c1ccc2cccnc2c1O (stereo unspecified)"
experimental_value = "0.708 µM (active)"

[[record]]
compound = "COC(=O)c1cn(NC(=O)c2cc([N+](=O)[O-])ccc2F)c(=O)c2ccccc12"
experimental_value = "2 µM (active)"

[[record]]
compound = "CN[C@H]1C[C@H]2c3[nH]c4ccc(-c5ccc(OC)cc5)cc4c3CCN2C(=O)[C@H]1[C@H](C)O"
experimental_value = "3.16 µM (active)"

[[record]]
compound = "Oc1cccc(C(Nc2nccs2)c2ccc3cccnc3c2O)c1 (stereo unspecified)"
experimental_value = "2.51 µM (active)"


Data request, read-out Potency, for CCCC(=O)NC(c1ccc(Cl)cc1Cl)c1ccc2cccnc2c1O (stereo unspecified)
2.82 µM (active)

Look up Potency for this compound: "O=C(Cc1ccc(-c2ccccc2)cc1)Nc1ccccn1"
15.8 µM (active)

Entry under review: COc1ccc(C(NC(=O)c2cccnc2)c2cc(Cl)c3cccnc3c2O)cc1OC (stereo unspecified) . Reported Potency?
2.51 µM (active)

* * *

assay: Confirmatory qHTS for Inhibitors of ATXN expression; conditions: ATXN2-luciferase reporter cells, luminescence, 24 h; series mostly up to 11.5 µM; further: nearly all actives have a fitted effect of over 65% in size
In all, about 2,100 compounds went through this assay and about 940 (45%) were called active. Another 48% or so got no clear call; they are omitted. The call rests on the fitted dose curve; in most records, active means well fitted inhibition curve with a large enough effect; inconclusive means small, poorly fitted or top-dose-only effect; inactive means no such curve, though single readings can be large or run the other way. The set was probably picked from earlier hits. This is one part of the list.
Entry note: the call must match one of T for active, F for inactive

[[record]]
compound = "CC[C@]12c3[nH]c4ccc(Cl)cc4c3CCN1C(=O)[C@@H](CC(=O)NCC13CC4CC(CC(C4)C1)C3)C[C@@H]2C(=O)N1CCN(C(=O)c2ccco2)CC1"
label_class = "T"

[[record]]
compound = "Cn1c(CCc2nc3ccccc3[nH]2)nnc1SCC#N"
label_class = "F"

[[record]]
compound = "CCOc1cc(/C=N/Nc2cc(C)nc(-n3nc(C)cc3C)n2)ccc1O"
label_class = "T"

[[record]]
compound = "CC1(C(=O)NCc2ccco2)CCN1C(=O)C1(c2ccccc2)CC1 (stereo unspecified)"
label_class = "F"

[[record]]
compound = "Cc1c(C(=O)NCc2ccc(C(F)(F)F)cc2)sc(=O)n1Cc1cccc(F)c1"
label_class = "F"


Which result was noted for this compound in the test: CCN1CC2=C(OC(N)=C(C#N)C2c2cccs2)/C(=C\c2cccs2)C1 (stereo unspecified)
F

Hi, sorry to bother you, what did the test record for "O=C(N/N=C\c1c(O)ccc2ccccc12)c1cncc(Br)c1" ?
T

So what was the verdict on "Cc1ccc(C(C)C)c(OCc2ccc(C(=O)N/N=C/c3cccc(O)c3O)cc2)c1" in this test?
T

Hello, I am checking results. What call was entered for CC(=O)NC(c1ccco1)c1cc(Cl)c2cccnc2c1O (stereo unspecified) ?
T

Test call, this compound: "Cc1ccc(C(C)C)c(OCc2ccc(C(=O)N/N=C/c3ccc(O)c(O)c3)cc2)c1"
T

For this compound, state the assay outcome: "CS/C(=C\[N+](=O)[O-])Nc1ccc(OC(F)(F)F)cc1"
T

I'd appreciate the recorded outcome for "CC[C@]12c3[nH]c4ccc(Cl)cc4c3CCN1C(=O)[C@@H](CC(=O)NCC13CC4CC(CC(C4)C1)C3)C[C@@H]2C(=O)N1CCN(C(=O)C2CC2)CC1" from this test.
T

Recorded test outcome, item "O=C(Nc1cccc2cccnc12)c1csc(COCCO)n1"
F

Origin of values: PubChem BioAssay AID1745848
